Test: Plasma pharmacokinetics after a single oral dose in healthy male subjects
Assay type: in vivo, human
Settings: male, human, po, 250 mg, single oral dose of 250 mg, read-out: Cmax, range over six subjects
Quantity kind: Cmax

**Q:** Query (compound): CN(C)c1cc2c(cc1Sc1nc3c(N)nccc3n1CCNCC(C)(C)C)OCO2 ; field requested: Cmax
**A:** 19.4 to 24.9 ng/mL

* * *

Assay: Plasma pharmacokinetics after a single oral dose in healthy male subjects
Assay type: in vivo, human
Details: male, human, po, 250 mg, single oral dose of 250 mg, six subjects, read-out: Cmax, median (molar)
Quantity kind: Cmax

**Q:** Returns the measured Cmax for the input molecule. Input: CN(C)c1cc2c(cc1Sc1nc3c(N)nccc3n1CCNCC(C)(C)C)OCO2
**A:** 46 nM
